# experimental_details: label from the status in PepcDB records
measured_attribute: protein production

Known protein production results, listed for orientation:
{"input_sequence": "MKIALINENSQASKNHIIYDSLKEATDKKGYQLFNYGMRGEEGESQLTYVQNGLMAAILLNTKAVDFVVTGCGTGVGAMLALNSFPGVVCGLAVDPTDAYLYSQINGGNALSIPYAKGFGWGAELTLKLMFERLFAEEMGGGYPRERVIPEQRNARILNEVKQITHNDLMTILKIIDQDFLKDTISGKYFQEYFFENCQDDEVAAYLKEVLA", "measured_attribute": "protein production", "reading": "failed"}
{"input_sequence": "MLSKFLLFSARLSTTKILASLIIIMILATGLYQWLIHTPAFSPQVSAVSTTTENDFSLTDWTINLVDKLNWQQGGSSTFFNAGLLFVFLSLATSVGLPRQIAALVAGINLGAFIGIIVATLAATLGCFITFSVARYLLSDCITRKYPSKLAQLSAFLGEQTFLKAIVIRILPLGSNFITNIIAGVSKVSMPAYVSGSFVGFIPQMVIFSLAGSGIRLGAQNELIASATLFVIALILTTYLVKKHKAKTKN", "measured_attribute": "protein production", "reading": "failed"}
{"input_sequence": "MSKIEDIRKFYARLMAANAASSDPRLEQVFATVPREAFLGPGPWTIVAGSGRVTTPSADPAHIYQNVLVALDADKGINNGEPFLHAMWIGKLAPKPGEAVTHVGAGTGYYSAVLARLVSPGGTVTAFELEGRLADLARKNLEIYGNATVIHGDAVTRPLPPSDIIYVNAGVVAPPVGWLKALRPGGRMIFPWRPSERVPLAVMVTRTEKGFACDPFMRSWFIPCIGASVADLAAKIPTPEQATRSRSIWLTQHKAPDRTATAIFGDVWFSTKDVRAKPGS", "measured_attribute": "protein production", "reading": "failed"}
{"input_sequence": "MSSMNANAENSESKPKSGNDPLDHEGGDSSAASEDPNKSKTVSSDDDLSETNKEKEEEDCEECWLSRYLKKGDCKDAFIEVDHCREVKDDGTNCRDARLKLITCMYTNVDYYGPFLAMQKEMRTQSLKELEQGEEAAAAAKKKEEEEETKGK", "measured_attribute": "protein production", "reading": "failed"}
{"input_sequence": "MEGITSFENLPEELKREILLRMSPNSLVTCSRVSKKLASMIRTKSFKELYLSRSMRCPRVLFAANGTITPHVLFTSFQEKEKPLLSSGEQRIITSLQGEFLFSPPVRGLICLVERESARIVICNPGTTKFLALPIVEADETTRIITHLGYDEQKDVFKVLCTRTKPETPHLVLTVGSGKEPWREIVCKFPHTVIGAGVFYRGTLYYLAAFHSKSIIMTFDVRSETFMPITSPDGVDLNQGSWRLVNYSQQGGFALVNESRGFIYQSNGGDAYLETWVWNVDTRKWSMNSILIRKWKDYAQDNEDYDYRFRGTQGTYELVFAPIRVKEDGSLTVILYNTDTQAFRRSKVQMMGEGHEFRFVDTFLDHVDSTLLI", "measured_attribute": "protein production", "reading": "failed"}

Q: Provide measured protein production value, entry: `MTKIACVIVTYNRKQLLEEALNSVLIQTESPEYVFVIDNASTDGTEKYINDKFNFDNRQWHYVRCSQNLGGSAGFAQGMRLALQTDCSWISISDDDAIFEPGYFAALRKGIKQYPEQSVFSGSVLLPDGKHDMMHREVITNSATLTVRCVTDETYKHDFSYDIFSFVGILLSRQVIEAIGLPEQDYFIRFDDFEYAVRALKFGRFMNLSAAKVLHKTTYTRSAIAPWKEYYVMRNRIALLIKHRGNNHTVRWYCRRFLLRKLLAILLFSNRRRQARSLVNAYVKGYQDGWHARLGRQLAFLPS`
A: failed

Q: Provide measured protein production value, entry: `MTTLKLFDIEHAWGLPRKVSPRFGARLILRGLHLDYLHDRASFVGEFPPAIKQQFVEAFPAMVKQLERLVATGEIDTTEQHCVSIEHAGFTCEADTLGSHGYLYIAIYQTKAKPLTTSNLTITRLEHHHHHH`
A: failed

Q: Provide measured protein production value, entry: `MNADGWLADTRSSYDTVAVSYADQLRGALAGTPYLRAALELFAGMIHTAGGGPVADVGCGPGHVTAHLHGLGVDAFGIDLSPAMIDVARRDHPDLRFEVGSMTDLNLADASVTALLAFWSLIHVPDDAIPAVFGHFRRVVRPGGPLLLGFHIGDESRLKTEGYGGHPMKVHVHHRQPVQVTAWLRDAGFTVEAQWLLGLDGHIPGAVLFAHRQSLEHHHHHH`
A: failed

Q: Provide measured protein production value, entry: `MKSALSDFILGKKGIYGILHIIILLMSLFLVISISIDTFKGIPFYTQSSYMKIQLWICIWFLFDFVLEFFLAKHKWRYIRTHFIFLLVAIPYQNIIAYYGWTFSPEVTYLLRFIPLLRGGYALAIVVGWLTYNRASSLFVSYLTMLLATVYFASLAFFVLEHKVNPLVTDYGDALWWAFMDVTTVGSNIIAMTTTGRVLSVLLAALGMMMFPIFTVYITNLIQQSNQKKKQYYAEEEEKTASA`
A: failed

Q: Provide measured protein production value, entry: `MVRLFGPLVGLFFAVALLWSFGNGAYVAITEPAAPTAESVFHKHPKELDLASNGAFGRFDKQQLQRGFQVYKEVCATCHSLKQIAFRDLAALGYSEAEVKAIAKGWPTKAATFNPVTGDRGERDNIPSDRIPAVYYAGQGVPPDLSLMTKARHDGGAYVYSLLTGYAEQPAELLKQFPDAKTPDGLHYNPYFANLNLAMPAPLTTDGQVTYSDGTKASVDQMAKDVSAFLVWTAEPKLDKRKQTGWAVLGFLLVATVLAYLAKKNVWADKH`
A: failed

Q: Provide measured protein production value, entry: `MSLSYVLPTLTYSLAASTLGLLQAIPGAFTGFRHTDSDSARGLLLGIFILTVSALLTLAVSAVFWLASFTLFRVLSRYREYAADRGAVAITGDPAALASALATIDDEMAAAPDHDLRAQDGGLDALYIAPIDETQFKDAPDFVANDVFPQTHPPTEARIERLEAMATEGPT`
A: failed

---

# experimental_details: label from the status in PepcDB records
measured_attribute: protein production

{"input_sequence": "MSELPPREQPPRDQAISVAAISPERPDNHENDWTRRLVLFLRVMAVLSVAKGLYHWAQITGFVGGEDDAFEVQTMAWQTATIYFAVIELVAAVGLWLATPWGAVVWLTTVVSMAVIELMFPAIYGGSLLVVLGEALLLAAYLALAWMAARERPP", "protein production": "failed"}
{"input_sequence": "MIRVGYLGPEATFTNMAVSRFFPEAEHVPYRTIPDCMDAAANGNVDYAVVPLENAIEGSVNITIDYLVHEQPLSIVGEITVPIQQHLLVHPQYAEVWEEVYAVHSHPHAIAQCHKFLNEELKGITARDMTSTSAAAQYVKEHPEEKIAAIANEAAAEKYGLTIVRRSIHTHKNNHTRFLVLHKKKKAILSNNGENRGEKTTLMITLPADYAGALYQVLSAFAWRKLNLSKIESRPMKTGLGNYFFLIDVDKAYDDVLLPGVTMELEALGFSVTVLGSYSSYWL", "protein production": "failed"}
{"input_sequence": "MDILKTLQKHLGDVETSDFTTNAIEKSQQIAKFSRDMKNINESVGALQVLQIACKKLFNKSMGLEDKDALQASIIKQELREIVENCQFLASPLFDTQLNIAINDEIFSMIVVNPLDLLENVGEFQAYLEEKLNEIKELLGYLSESLSNPKAFMPSFSNQSLKDLLSDNLRA", "protein production": "failed"}
{"input_sequence": "MTVWRSWRLLGVSGDSKPTDGPVSRFLNRRIASAIASAIIALNLPLTPNMLSLISFLTAAAAALFIAGGQLLVGGLLVQLSSVLDGVDGIVARRLRAASKAGGFLDTMLDRYADTVIYLALAYAAVATHGLETWAVLTAVLAVSGDIMVSYLHTRGERDAGVHPSLVGPLDSLASRDVRLLIVAVITAAGRPLEAMAAVALLSHAYVAVKSIYLFSLLKSKGV", "protein production": "failed"}

Q: Provide measured protein production value, entry: `MEDTMSKKAKKIIKIVVISIVTLAITICFGGYMMFHNEIKTLHSIEKLDDYPFYMMEYYGDYGLDEFLEQGGASSDSELVSFVVKRLMKGLPIEINIPSLGCSTFTAVTPENEYLFGRNFDLSYSPAMMVRTKPEKGYESVSMVNLGFIGYGKDKLPDNFFNSITTLAGPYAPLDGMNEKGLSVGVLLIPTEETNQTTNKVDITTTTAIRMILDTCATVEEAVDLLSQYDMHSSANSCYHFQIADANGTSVVVEYINNEMKLVEPKQAYQAATNFLLTPGDYDFGHGQDRYNTLMTTLDKKQGVLSEKEAMNLLKAVSQQPHKTKDGSISATQWSVVYNNTKRTATVSMGMDYQHTYEIKLFE`
A: failed

Q: Provide measured protein production value, entry: `MSLSPDLLLAFALFALVTSITPGPNNTMLLASGVNFGFNRSIPHILGISCGFFVLVLAVGLGLGAVFEAYPLLYSVLRYVGAVYLLYLAWKIARSGPLSDEQQHHGRPLGYWGAAAFQWVNPKAWVMAVGAISTYTPLQGYFTNVLVIAAVFALINAPTVSLWAACGSLLRNVLRNPRWLRLFNLLMAALLVLSLAPLLFEKMS`
A: failed
